Values from PubChem BioAssay AID463173

Tested on: Wild type
experimental details: S. aureus survival, RN4220 and DeltatarO strains – OD600, teichoic acid synthesis inhibitors, primary screen (AID 463173)
experimental parameters: S. aureus RN4220 wild type/DeltatarO growth, OD600, 18 h, stronger effect = lower value, screened at 18.75 µg/mL (by protocol)
About 1,700 (3.3%) of roughly 52,000 compounds were called active. The full list was thinned out, with actives kept by preference.
property label: survival (%)

1) COc1cccc(C(=O)NC2CCCC2)c1; 103
2) O=c1c(S(=O)(=O)c2ccc(Cl)cc2)cn(Cc2ccc(F)cc2)c2ccc(F)cc12; 130
3) Cc1ccc2nc(N(CCCN(C)C)C(=O)c3ccco3)sc2c1; 72
4) Cc1ccc(CNS(=O)(=O)c2ccc3c(c2)CC(C)N3C(=O)C2CCC2)cc1 (stereo not given); 97
5) Cc1ccc(-c2nnc(Nc3ccc(F)cc3)c3ccccc23)cc1S(=O)(=O)NC(C)C; 81
